Target: Cholecystokinin receptor type A (Homo sapiens, UniProt P32238)
Sequence (P32238 whole entry): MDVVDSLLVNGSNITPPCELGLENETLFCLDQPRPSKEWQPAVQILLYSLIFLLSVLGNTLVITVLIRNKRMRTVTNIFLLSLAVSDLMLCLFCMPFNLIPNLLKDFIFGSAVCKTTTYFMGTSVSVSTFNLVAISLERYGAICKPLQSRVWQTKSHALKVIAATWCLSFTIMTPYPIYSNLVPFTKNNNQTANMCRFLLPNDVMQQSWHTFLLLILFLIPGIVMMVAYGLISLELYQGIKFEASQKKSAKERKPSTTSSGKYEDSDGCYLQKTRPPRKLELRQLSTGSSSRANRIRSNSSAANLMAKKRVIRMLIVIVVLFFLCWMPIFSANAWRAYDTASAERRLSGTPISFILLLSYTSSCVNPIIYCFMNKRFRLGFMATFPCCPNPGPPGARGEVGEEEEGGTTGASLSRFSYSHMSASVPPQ
Assay: Displacement of [125I]CCK-8(SO3) from human CCK1 receptor expressed in HEK293 cells
test_readout: pIC50
Bear in mind: pIC50 is minus log10 of a mol/L concentration; give just that figure.

CCCC[C@@H](C(=O)N[C@@H](CC(=O)O)C(=O)N[C@@H](Cc1ccccc1)C(N)=O)N(C)C(=O)[C@@H](Cc1c[nH]c2ccccc12)NC(=O)CNC(=O)[C@@H](Cc1ccccc1)NC(=O)[C@@H](N)Cc1ccc(O)cc1
5.96
CCCC[C@H](NC(=O)[C@H](Cc1c[nH]c2ccccc12)NC(=O)CNC(=O)[C@@H](CCCC)NC(=O)[C@@H](N)Cc1ccc(O)cc1)C(=O)N[C@@H](CC(=O)O)C(=O)N[C@@H](Cc1ccccc1)C(N)=O
8.02
CCCC[C@@H](C(=O)N[C@@H](CC(=O)O)C(=O)N[C@@H](Cc1ccccc1)C(N)=O)N(C)C(=O)[C@H](Cc1c[nH]c2ccccc12)NC(=O)CNC(=O)[C@@H](Cc1ccccc1)NC(=O)[C@@H](N)Cc1ccc(O)cc1
5.44
CCCC[C@H](NC(=O)[C@H](Cc1c[nH]c2ccccc12)NC(=O)CNC(=O)[C@@H](Cc1ccccc1)NC(=O)[C@@H](N)Cc1ccc(O)cc1)C(=O)N[C@@H](CC(=O)O)C(=O)N[C@@H](Cc1ccccc1)C(N)=O
7.01

What measured pIC50 goes with `CCCC[C@H](NC(=O)[C@@H](Cc1c[nH]c2ccccc12)NC(=O)CNC(=O)[C@@H](C)NC(=O)[C@@H](N)Cc1ccc(O)cc1)C(=O)N[C@@H](CC(=O)O)C(=O)N[C@@H](Cc1ccccc1)C(N)=O` ?
5.19
